Biological target: CYP2C19 (Homo sapiens, UniProt P33261)
Construct: from tissue; host or cells: human liver microsomes (pooled in the time-dependent assay)
Sequence (P33261 whole entry): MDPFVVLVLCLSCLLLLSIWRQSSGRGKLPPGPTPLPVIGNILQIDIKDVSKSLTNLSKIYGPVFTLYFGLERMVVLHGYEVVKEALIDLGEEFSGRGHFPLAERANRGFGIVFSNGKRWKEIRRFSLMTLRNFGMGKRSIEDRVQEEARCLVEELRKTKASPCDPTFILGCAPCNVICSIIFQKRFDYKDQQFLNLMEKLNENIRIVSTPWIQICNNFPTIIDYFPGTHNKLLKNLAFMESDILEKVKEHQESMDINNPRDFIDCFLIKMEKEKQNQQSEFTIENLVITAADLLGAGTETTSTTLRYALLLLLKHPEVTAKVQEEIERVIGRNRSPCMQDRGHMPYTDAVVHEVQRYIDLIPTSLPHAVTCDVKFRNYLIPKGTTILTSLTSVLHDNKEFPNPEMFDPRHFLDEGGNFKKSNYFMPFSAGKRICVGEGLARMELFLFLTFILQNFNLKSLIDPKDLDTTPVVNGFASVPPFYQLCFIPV
Assay: direct inhibition of CYP450 in human liver microsomes
Format: in vitro ADME
Settings: 10 uM, % of non-inhibited control, read-out: CYP2C19 T0 % activity
readout kind: activity at 10 µM
Reply with the number and its unit after it.

Known results for compounds:
>>> result("CO[C@H]1CC[C@H](NC(=O)c2cc(C3CCC(F)(F)CC3)nc(-c3cncn3C)n2)CC1 [Compound 289]")
"63%"
>>> result("CO[C@H]1CC[C@H](NC(=O)c2nccc(-n3ccnc3)n2)CC1 [Compound 145]")
"93%"
>>> result("CO[C@H]1CC[C@H](NC(=O)c2cc(C3(C)COC3)nc(-c3cncn3C)n2)CC1 [Compound 295]")
"100%"
>>> result("Cn1cncc1-c1ccnc(C(=O)Nc2ccc(C(C)(C)O)nc2)n1 [Compound 250]")
"88%"
>>> result("Cn1cncc1-c1ccnc(C(=O)N[C@H]2CC[C@H](O)CC2)n1 [Compound 256]")
"96%"
>>> result("[2H]c1nc([2H])n(-c2nc(C)cc(C(=O)N[C@H]3CC[C@H](OCCOC)CC3)n2)c1[2H] [Comparator Compound A, reference compound]")
"49%"

Report activity at 10 µM for each item below.
1. CO[C@H]1CC[C@H](NC(=O)c2cc(C3CCOCC3)nc(-c3cncn3C)n2)CC1 [Compound 199]
2. CC(C)(O)c1ccc(NC(=O)c2nccc(-n3ccnc3)n2)cn1 [Compound 249]

1. 85%
2. 96%
